Reference for the values: the supplement of paper PMC11061612

Test system: GRANTA-519 (B-Cell Non-Hodgkin's Lymphoma);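 further: after 72 h of two-drug dosing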
Test: Bliss excess, mean over the matrix (fraction); higher = more synergy
ATTRIBUTE MEASURED: Bliss excess
Note: the reply should be a number with no unit written.

Recorded Bliss excess, per entry:
* CC1(C)CCC(CN2CCN(c3ccc(C(=O)NS(=O)(=O)c4ccc(NCC5CCOCC5)c([N+](=O)[O-])c4)c(Oc4cnc5[nH]ccc5c4)c3)CC2)=C(c2ccc(Cl)cc2)C1 [Venetoclax] + COc1cc(Nc2ncc3c(n2)-c2ccc(Cl)cc2C(c2c(F)cccc2OC)=NC3)ccc1C(=O)O [Alisertib] (first compound max 1 µM, 7x7, partner max 10 µM) | 0.438
* Cn1cnc2c(F)c(Nc3ccc(Br)cc3Cl)c(C(=O)NOCCO)cc21 [Selumetinib] + CCN(CCO)CCCOc1ccc2c(Nc3cc(CC(=O)Nc4cccc(F)c4)[nH]n3)ncnc2c1 [AZD2811] (first compound max 10 µM, 7x7, partner max 1 µM) | 0.0288
* Cc1c2c(nn1C)CSCc1cc(n(C)n1)CSc1cc(c3ccccc3c1)OCCCc1c(C(=O)O)n(C)c3c-2c(Cl)ccc13 [AZD5991] + CN(C)CCCOc1ccc(-c2ccc3ncc4c(c3c2)n(C2CCOCC2)c(=O)n4C)cn1 [AZD0156] (first compound max 1 µM, 7x7, partner max 1 µM) | -0.0017
* CN(CCO)CC[C@H](CSc1ccccc1)Nc1ccc(S(=O)(=O)NC(=O)c2ccc(N3CCC([C@@H](O)c4ccccc4-c4ccc(Cl)cc4)CC3)cc2)cc1S(=O)(=O)C(F)(F)F [AZD4320] + C=CCn1c(=O)c2cnc(Nc3ccc(N4CCN(C)CC4)cc3)nc2n1-c1cccc(C(C)(C)O)n1 [AZD1775] (first compound max 1 µM, partner max 1 µM) | 0.0729
* Cc1cc2ncnn2cc1Nc1ncc2c(n1)n(C1CCOCC1)c(=O)n2C [AZD7648] + C[C@@H]1COCCN1C2=NC(=NC(=C2)C3(CC3)[S@](=N)(=O)C)C4=C5C=CNC5=NC=C4 [AZD6738] (first compound max 10 µM, 7x7, partner max 10 µM) | -0.0479
* CN(CCO)CC[C@H](CSc1ccccc1)Nc1ccc(S(=O)(=O)NC(=O)c2ccc(N3CCC([C@@H](O)c4ccccc4-c4ccc(Cl)cc4)CC3)cc2)cc1S(=O)(=O)C(F)(F)F [AZD4320] + CCN(CCO)CCCOc1ccc2c(Nc3cc(CC(=O)Nc4cccc(F)c4)[nH]n3)ncnc2c1 [AZD2811] (first compound max 1 µM, 7x7, partner max 1 µM) | 0.191

Query compound follows.
Challenge: In one line, give reported Bliss excess of the entry Cc1cc2ncnn2cc1Nc1ncc2c(n1)n(C1CCOCC1)c(=O)n2C [AZD7648] + CCN(CCO)CCCOc1ccc2c(Nc3cc(CC(=O)Nc4cccc(F)c4)[nH]n3)ncnc2c1 [AZD2811] (first compound max 10 µM, 7x7, partner max 1 µM) .
Response given: 0.0287
